Measured values drawn from patent US20090326003A1 for this set.

Target: PDE4B (human recombinant) (Homo sapiens, UniProt Q07343)
Construct: made in house
Sequence (Q07343 1-564 isoform Q07343-2): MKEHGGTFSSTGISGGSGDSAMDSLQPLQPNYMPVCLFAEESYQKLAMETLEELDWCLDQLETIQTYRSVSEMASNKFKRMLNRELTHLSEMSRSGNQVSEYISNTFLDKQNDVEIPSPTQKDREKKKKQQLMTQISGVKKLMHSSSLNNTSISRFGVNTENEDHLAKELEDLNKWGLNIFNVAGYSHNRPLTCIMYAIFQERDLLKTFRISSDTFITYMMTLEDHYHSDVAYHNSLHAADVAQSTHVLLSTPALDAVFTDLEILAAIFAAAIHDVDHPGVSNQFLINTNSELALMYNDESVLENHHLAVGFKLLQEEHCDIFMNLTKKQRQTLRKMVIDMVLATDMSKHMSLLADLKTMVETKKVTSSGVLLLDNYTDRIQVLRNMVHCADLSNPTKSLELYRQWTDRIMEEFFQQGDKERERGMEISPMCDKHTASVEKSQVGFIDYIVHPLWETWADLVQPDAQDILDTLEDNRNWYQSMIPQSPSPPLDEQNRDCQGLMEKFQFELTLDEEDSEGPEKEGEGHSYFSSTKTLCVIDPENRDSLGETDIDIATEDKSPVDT
Test: PDE4B inhibition, fluorescence polarisation (FP) and/or SPA assay
Assay type: biochemical
Details: n=1 or average of 2 or more readings, accuracy ±about 0.5 log unit, read-out: PDE4B pIC50 (generally in FP assay) (±about 0.5) (converted)
Counter-ions that a name gives are not always drawn.
Here, each record is paired with measured IC50 data.

Solved entries:
molecule	measured
CCc1nc2c(cnn2CC)c(NC2CCN(C(N)=O)CC2)c1CNC(=O)CCC(=O)NCc1c(CC)nc2c(cnn2CC)c1NC1CCN(C(N)=O)CC1 [Example 17, trifluoroacetate]	0.126 to 1 nM
CCc1nc2c(cnn2CC)c(NC2CCOCC2)c1CNC(=O)c1ccc(-c2ccc(C(=O)NCc3c(CC)nc4c(cnn4CC)c3NC3CCOCC3)cc2)cc1	~0.158 nM
CCc1nc2c(cnn2CC)c(NC2CCOCC2)c1CNC(=O)c1ccc(-c2ccc(C(=O)NCc3c(CC)nc4c(cnn4CC)c3NC3CCOCC3)cn2)nc1	0.126 to 1 nM
CCc1nc2c(cnn2CC)c(NC2CCN(C(N)=O)CC2)c1CNC(=O)Cc1cccc(C(=O)NCc2c(CC)nc3c(cnn3CC)c2NC2CCN(C(N)=O)CC2)c1 [Example 13, trifluoroacetate]	0.126 to 1 nM

Give IC50 for the following molecule: CCn1ncc2c(NC3CCOCC3)c(CNC(=O)c3cccc(-c4cccc(C(=O)NCc5c(C)nc6c(cnn6CC)c5NC5CCOCC5)c4)c3)c(C)nc21
~0.1 nM

Give IC50 for the following molecule: CCc1nc2c(cnn2CC)c(NC2CCOCC2)c1CNC(=O)c1cnc(C(=O)NCc2c(CC)nc3c(cnn3CC)c2NC2CCOCC2)cn1
0.126 to 1 nM
